Sourced from patent US20140356854A1

# target.or.system: IPK from B. floridae (Branchiostoma floridae)
# Sequence (A0A9J7KY69 entry or part of it): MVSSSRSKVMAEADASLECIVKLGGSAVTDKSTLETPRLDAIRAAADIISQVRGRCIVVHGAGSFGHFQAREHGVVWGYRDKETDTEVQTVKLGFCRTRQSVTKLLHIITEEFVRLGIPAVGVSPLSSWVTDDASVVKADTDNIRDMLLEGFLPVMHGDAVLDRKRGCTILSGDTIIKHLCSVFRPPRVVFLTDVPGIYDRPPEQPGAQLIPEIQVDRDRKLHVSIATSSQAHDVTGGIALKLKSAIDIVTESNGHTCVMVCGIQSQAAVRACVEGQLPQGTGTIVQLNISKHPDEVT
attribute.measured: pKi
Lab note — pKi values are minus log10 of concentrations in M.

Requested field: pKi. Item: C=C(C)CCOP(=O)(O)O [IP, isopentenyl phosphate]
2.55

###

# target.or.system: IPK from M. maripaludis (Methanococcus maripaludis, UniProt Q6LWR2)
# Sequence (Q6LWR2 entry or part of it): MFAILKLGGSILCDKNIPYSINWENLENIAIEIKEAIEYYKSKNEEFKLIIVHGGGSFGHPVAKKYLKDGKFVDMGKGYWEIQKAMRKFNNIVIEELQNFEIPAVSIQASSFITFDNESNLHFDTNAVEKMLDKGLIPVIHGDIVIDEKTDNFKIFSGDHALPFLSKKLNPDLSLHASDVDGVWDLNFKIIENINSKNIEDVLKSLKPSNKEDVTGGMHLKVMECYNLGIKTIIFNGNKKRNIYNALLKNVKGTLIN
attribute.measured: Ki (µM)
Write the value in µM as a bare number.

Requested field: Ki. Item: C=C(C)CCOP(=O)(O)O [IP, isopentenyl phosphate]
877
